# GI50 listing for each entry below
# Tested on: MV-4-11
# Assay summary: Proliferation assay (resazurin, leukemia cell lines), MV-4-11
# Format: cell-based
# Condition context: Homo sapiens, MV4-11, read-out: 72 h Growth inhibition GI50, MV-4-11 cells
Reported property: GI50 (nM)

{"columns": ["Structure smiles string", "Reported property", "Value units", "Test result"],
 "data": [
  ["CS(=O)(=O)N1CCN(c2ccc(Nc3nccc(-c4cnc5ccc(Br)cn45)n3)cn2)CC1", "GI50", "nM", 10],
  ["CN(C)c1ccc(Nc2nccc(-c3cnc4ccc(-c5ccc(F)nc5)cn34)n2)cn1", "GI50", "nM", 13],
  ["CN(C)c1ccc(Nc2nccc(-c3cnc4ccc(Br)cn34)n2)cn1", "GI50", "nM", 41],
  ["CC(C)N1CCN(c2ccc(Nc3nccc(-c4cnc5ccc(Cl)cn45)n3)cn2)CC1", "GI50", "nM", 24],
  ["O=C1NCCC12CCN(c1ccc(Nc3nccc(-c4cnc5ccc(-c6ccccc6)cn45)n3)cn1)CC2", "GI50", "nM", 5],
  ["O=C(NC1CC1)c1ccc(Nc2ncc(F)c(-c3cnc4ccc(-c5ccccc5)cn34)n2)cn1", "GI50", "nM", 296],
  ["CN1CCN(c2ccc(Nc3nccc(-c4cnc5ccc(-c6cnn(C)c6)cn45)n3)cn2)CC1", "GI50", "nM", 10],
  ["Fc1cnc(Nc2cccnc2)nc1-c1cnc2ccccn12", "GI50", "nM", 57]
]}

---

# Target entity: CDK4/CyclinD1 (Homo sapiens, UniProt P11802)
# Sequence (P11802 whole entry, species assumed): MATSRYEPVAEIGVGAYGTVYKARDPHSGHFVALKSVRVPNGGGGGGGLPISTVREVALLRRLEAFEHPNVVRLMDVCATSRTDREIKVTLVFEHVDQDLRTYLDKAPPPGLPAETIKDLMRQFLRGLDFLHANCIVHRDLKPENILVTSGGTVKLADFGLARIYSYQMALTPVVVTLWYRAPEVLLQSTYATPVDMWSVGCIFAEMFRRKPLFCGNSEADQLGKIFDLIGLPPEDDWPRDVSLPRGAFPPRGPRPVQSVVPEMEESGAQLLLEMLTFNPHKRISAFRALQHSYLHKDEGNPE
# Sequence (P24385 whole entry partner, species assumed): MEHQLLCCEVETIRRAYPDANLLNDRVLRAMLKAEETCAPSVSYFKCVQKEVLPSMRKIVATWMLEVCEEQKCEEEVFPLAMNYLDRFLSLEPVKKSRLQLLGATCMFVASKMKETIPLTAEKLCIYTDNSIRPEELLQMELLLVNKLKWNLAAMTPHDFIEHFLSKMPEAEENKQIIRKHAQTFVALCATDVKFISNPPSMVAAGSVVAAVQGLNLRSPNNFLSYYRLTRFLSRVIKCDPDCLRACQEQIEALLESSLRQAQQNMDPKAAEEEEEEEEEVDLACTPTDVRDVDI
# Assay summary: ADP Glo kinase assay, CDK4/CyclinD1
# Format: biochemical
# Condition context: compound at 1 μM, read-out: Residual enzymatic activity (%) at 1 μM, CDK4 D1
# remaining activity at 1 µM listing for each entry below

{"columns": ["Compound", "remaining activity at 1 µM [%]"],
 "data": [
  ["CCN1CCN(Cc2ccc(Nc3nccc(-c4cnc5ccc(-c6ccccc6)cn45)n3)cn2)CC1 [Compound 80]", 81],
  ["CS(=O)(=O)N1CCN(c2ccc(Nc3nccc(-c4cnc5ccc(-c6cccs6)cn45)n3)cn2)CC1 [Compound 21]", 33],
  ["COC(=O)N1CCC(c2ccc(Nc3ncc(F)c(-c4cnc5ccc(-c6ccccc6)cn45)n3)cn2)CC1 [Compound 29]", 98],
  ["CC(=O)N1CCN(c2ccc(Nc3nccc(-c4cnc5ccc(-c6ccncc6)cn45)n3)cn2)CC1 [Compound 46]", 92],
  ["CS(=O)(=O)N1CCN(c2ccc(Nc3nccc(-c4cnc5ccc(-c6cncnc6)cn45)n3)cn2)CC1 [Compound 20]", 86],
  ["COc1ccc(-c2ccc3ncc(-c4ccnc(Nc5ccc(N6CCN(C(C)=O)CC6)nc5)n4)n3c2)cn1 [Compound 48]", 86],
  ["CN1CCN(Cc2ccc(Nc3nccc(-c4cnc5ccc(Br)cn45)n3)cn2)CC1 [Compound 77]", 52],
  ["Brc1ccc2ncc(-c3ccnc(Nc4ccc(N5CCNCC5)nc4)n3)n2c1 [Compound 42]", 24],
  ["COC(=O)c1ccc(Nc2nccc(-c3cnc4ccc(Br)cn34)n2)cn1 [Compound 82]", 94],
  ["CC(=O)N1CCN(c2ccc(Nc3nccc(-c4cnc5ccc(-c6cn[nH]c6)cn45)n3)cn2)CC1 [Compound 47]", 51],
  ["CN1CCN(c2ccc(Nc3nccc(-c4cnc5ccc(-c6cnc(N)nc6)cn45)n3)cn2)CC1 [Compound 23]", 72],
  ["CC(C)N1CCN(c2ccc(Nc3nccc(-c4cnc5ccc(-c6ccccc6)cn45)n3)cn2)CC1 [Compound 39]", 55],
  ["O=C1NCCC12CCN(c1ccc(Nc3nccc(-c4cnc5ccc(-c6cnn(C(F)F)c6)cn45)n3)cn1)CC2 [Compound 73]", 82],
  ["CN1CCN(c2ccc(Nc3ncc(F)c(-c4cnc5ccc(-c6ccccc6)cn45)n3)cn2)CC1 [Compound 28]", 76],
  ["CN(C)C1CCN(Cc2ccc(Nc3nccc(-c4cnc5ccc(Br)cn45)n3)cn2)CC1 [Compound 81]", 47],
  ["CN1CCN(Cc2ccc(Nc3nccc(-c4cnc5ccc(-c6ccccc6)cn45)n3)cn2)CC1 [Compound 78]", 95]
]}

---

# Target entity: FLT3-ITD (Homo sapiens)
# Assay summary: ADP Glo kinase assay, FLT3-ITD
# Condition context: Km ATP 100 μM, read-out: Enzymatic inhibition, Ki, FLT3-ITD
pKi: −log10 of the molar value.
Reported property: pKi

{"columns": ["Structure smiles string", "Test result"],
 "data": [
  ["CN1CCN(c2ccc(Nc3nccc(-c4cnc5ccc(-c6cncnc6)cn45)n3)cn2)CC1", 7.51],
  ["CC(=O)N1CCN(c2ccc(Nc3nccc(-c4cnc5ccc(Br)cn45)n3)cn2)CC1", 6.86],
  ["COc1ccc(-c2ccc3ncc(-c4ccnc(Nc5ccc(N6CCN(C(C)=O)CC6)nc5)n4)n3c2)cn1", 7.07],
  ["CN1CCN(c2ccc(Nc3nccc(-c4cnc5ccc(-c6cnn(C(F)F)c6)cn45)n3)cn2)CC1", 7.92]
]}

---

# log10 of Ki listing for each entry below
# Target entity: FLT3-ITD (Homo sapiens, UniProt P36888)
# Sequence (P36888 1-993): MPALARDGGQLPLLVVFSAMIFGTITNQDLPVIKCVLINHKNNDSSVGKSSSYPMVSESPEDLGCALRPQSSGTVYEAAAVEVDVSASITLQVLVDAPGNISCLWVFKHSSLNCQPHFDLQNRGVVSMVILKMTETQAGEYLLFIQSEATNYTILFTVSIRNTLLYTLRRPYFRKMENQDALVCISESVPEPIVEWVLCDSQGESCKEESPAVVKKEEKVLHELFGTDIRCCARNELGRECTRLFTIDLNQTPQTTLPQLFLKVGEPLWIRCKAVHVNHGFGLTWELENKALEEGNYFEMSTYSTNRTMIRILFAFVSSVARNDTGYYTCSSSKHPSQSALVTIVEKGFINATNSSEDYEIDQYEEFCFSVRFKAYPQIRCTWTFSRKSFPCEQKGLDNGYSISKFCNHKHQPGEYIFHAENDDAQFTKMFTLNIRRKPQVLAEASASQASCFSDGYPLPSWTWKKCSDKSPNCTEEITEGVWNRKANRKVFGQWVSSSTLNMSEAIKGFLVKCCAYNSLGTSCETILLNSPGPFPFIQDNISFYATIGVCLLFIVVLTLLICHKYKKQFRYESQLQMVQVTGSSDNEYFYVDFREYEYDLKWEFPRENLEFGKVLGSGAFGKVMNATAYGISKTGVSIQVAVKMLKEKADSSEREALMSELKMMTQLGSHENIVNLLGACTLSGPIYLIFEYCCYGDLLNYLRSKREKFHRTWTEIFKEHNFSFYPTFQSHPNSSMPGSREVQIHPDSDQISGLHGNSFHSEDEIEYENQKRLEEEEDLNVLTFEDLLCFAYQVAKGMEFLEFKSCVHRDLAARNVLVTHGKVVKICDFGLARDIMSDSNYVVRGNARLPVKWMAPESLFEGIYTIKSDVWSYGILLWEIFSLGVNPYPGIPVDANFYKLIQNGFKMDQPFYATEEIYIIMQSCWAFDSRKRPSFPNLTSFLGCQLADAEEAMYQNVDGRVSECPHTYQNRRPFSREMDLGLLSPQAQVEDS
# Assay summary: ADP Glo kinase assay, FLT3-ITD
# Condition context: Km ATP 100 μM, read-out: Enzymatic inhibition, Ki, FLT3-ITD
# Method: Test compounds are used in 1:3 serial dilutions for 10 concentrations (from 10-0.0005 μM) in 0.5% DMSO. […] The kinase reactions are run for optimised time period at room temperature and then the reaction is stopped by adding 5 μL of ADP Glo reagent.
Reported property: log10 of Ki (log10 of the value in µM)

{"columns": ["Structure smiles string", "log10 of Ki"],
 "data": [
  ["COc1ccc(-c2ccc3ncc(-c4ccnc(Nc5ccc(N6CCN(C)CC6)nc5)n4)n3c2)cn1", -1.62],
  ["CN1CCN(Cc2ccc(Nc3nccc(-c4cnc5ccc(Br)cn45)n3)cn2)CC1", -1.15],
  ["c1ccc(-c2ccc3ncc(-c4ccnc(Nc5ccc(N6CCCC6)nc5)n4)n3c2)cc1", -0.96],
  ["CN1CCN(c2ccc(Nc3nccc(-c4cnc5ccccn45)n3)cn2)CC1", -2.70],
  ["O=C1NCCC12CCN(c1ccc(Nc3nccc(-c4cnc5ccc(-c6ccccc6)cn45)n3)cn1)CC2", -1.26],
  ["CCCNc1ccc(Nc2nccc(-c3cnc4ccc(-c5ccccc5)cn34)n2)cn1", -0.80],
  ["Brc1ccc2ncc(-c3ccnc(Nc4ccc(NC5CCOCC5)nc4)n3)n2c1", -1.40],
  ["O=C1NCCC12CCN(c1ccc(Nc3nccc(-c4cnc5ccc(Br)cn45)n3)cn1)CC2", -1.62],
  ["CC(C)N1CCN(c2ccc(Nc3nccc(-c4cnc5ccc(-c6ccsc6)cn45)n3)cn2)CC1", -1.96],
  ["Cc1nc2ccc(F)cn2c1-c1ccnc(Nc2ccc(N3CCN(C)CC3)nc2)n1", -2.52],
  ["c1ccc(-c2ccc3ncc(-c4ccnc(Nc5ccc(N6CCC6)nc5)n4)n3c2)cc1", -2.30],
  ["Cc1ccc2ncc(-c3ccnc(Nc4ccc(N5CCN(C)CC5)nc4)n3)n2c1", -1.80],
  ["O=C(c1ccco1)N1CCN(c2ccc(Nc3nccc(-c4cnc5ccc(-c6ccccc6)cn45)n3)cn2)CC1", -1.09],
  ["CC(=O)N1CCN(c2ccc(Nc3nccc(-c4cnc5ccc(-c6ccncc6)cn45)n3)cn2)CC1", -1.10]
]}
